Every entry's value here was drawn from patent US20260242478A1.

# TESTED_TARGET: T1, PSMA Fab (006 PSMA Fab) (biotinylated (site not given))
# T1 construct: also called Anti-PSMA Fab; anti-PSMA Fab
# EXPERIMENT: clonal phage ELISA; biotinylated PSMA Fab on neutravidin plate, wells pre-incubated with PSMA antigen as competitor; anti-M13 HRP detection;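 also: crude clonal phage supernatants added to antigen-treated wells without a wash, incubated briefly, then bound phage read out via horse radish–conjugated anti-M13 antibody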
Where no end group is shown, it is not given here.
READOUT_LABEL: Phage binding ELISA signal, Anti-PSMA Fab with PSMA antigen

BINDER	OBSERVED_VALUE
TDKLCRPPWMCELM (cysteine pairing not given here; also: displayed on phage pIII, linker not given here, Clonal phage of the Peptide-180 library, tested as crude phage supernatant; not shown: pIII filament protein of the bacteriophage) [Phage-2634]	0.065
TVKWCTPPWMCEES (cysteine pairing not given here; also: displayed on phage pIII, linker not given here, Clonal phage of the Peptide-180 library, tested as crude phage supernatant; not shown: pIII filament protein of the bacteriophage) [Phage-2637]	0.0943
LVKWCIPDWMCSLS (cysteine pairing not given here; also: displayed on phage as pIII fusion, fusion junction and sequence not given here, Clonal phage of the Peptide-180 library, tested as crude phage supernatant; not shown: pIII filament protein of the bacteriophage) [Phage-2647]	0.0865
DMKWCTPAWMCQSS (cysteine pairing not given here; also: displayed on phage pIII, linker not given here, Clonal phage of the Peptide-180 library, tested as crude phage supernatant; not shown: pIII filament protein of the bacteriophage) [Phage-2635]	0.0701
